Provenance of the data: ChEMBL document CHEMBL2440066

I'd appreciate it if you could supply Tmax values for the items below.
protocolDescription: Tmax in Sprague-Dawley rat at 10 mg/kg, po
Type: ADME, organism-based
Parameters: dose 10 mg/kg, route oral
testConditions: in vivo
Please state the figure in h; there is no need to write the unit.

Query: Requested read-out: Tmax. Entry: `CCCCOC(=O)c1ccccc1-c1ccc(CN2CCC(COC(=O)c3c4n(c5ccccc35)CCCO4)CC2)cc1.CS(=O)(=O)O`
Result: 6

Query: Fill in: Tmax of `COC(=O)c1ccccc1-c1ccc(CN2CCC(COC(=O)c3c4n(c5ccccc35)CCCO4)CC2)cc1.CS(=O)(=O)O` is ___
Result: 2

====

experimentalSystem: hERG (KCNH2) (Homo sapiens)
Sequence (Q12809 whole entry): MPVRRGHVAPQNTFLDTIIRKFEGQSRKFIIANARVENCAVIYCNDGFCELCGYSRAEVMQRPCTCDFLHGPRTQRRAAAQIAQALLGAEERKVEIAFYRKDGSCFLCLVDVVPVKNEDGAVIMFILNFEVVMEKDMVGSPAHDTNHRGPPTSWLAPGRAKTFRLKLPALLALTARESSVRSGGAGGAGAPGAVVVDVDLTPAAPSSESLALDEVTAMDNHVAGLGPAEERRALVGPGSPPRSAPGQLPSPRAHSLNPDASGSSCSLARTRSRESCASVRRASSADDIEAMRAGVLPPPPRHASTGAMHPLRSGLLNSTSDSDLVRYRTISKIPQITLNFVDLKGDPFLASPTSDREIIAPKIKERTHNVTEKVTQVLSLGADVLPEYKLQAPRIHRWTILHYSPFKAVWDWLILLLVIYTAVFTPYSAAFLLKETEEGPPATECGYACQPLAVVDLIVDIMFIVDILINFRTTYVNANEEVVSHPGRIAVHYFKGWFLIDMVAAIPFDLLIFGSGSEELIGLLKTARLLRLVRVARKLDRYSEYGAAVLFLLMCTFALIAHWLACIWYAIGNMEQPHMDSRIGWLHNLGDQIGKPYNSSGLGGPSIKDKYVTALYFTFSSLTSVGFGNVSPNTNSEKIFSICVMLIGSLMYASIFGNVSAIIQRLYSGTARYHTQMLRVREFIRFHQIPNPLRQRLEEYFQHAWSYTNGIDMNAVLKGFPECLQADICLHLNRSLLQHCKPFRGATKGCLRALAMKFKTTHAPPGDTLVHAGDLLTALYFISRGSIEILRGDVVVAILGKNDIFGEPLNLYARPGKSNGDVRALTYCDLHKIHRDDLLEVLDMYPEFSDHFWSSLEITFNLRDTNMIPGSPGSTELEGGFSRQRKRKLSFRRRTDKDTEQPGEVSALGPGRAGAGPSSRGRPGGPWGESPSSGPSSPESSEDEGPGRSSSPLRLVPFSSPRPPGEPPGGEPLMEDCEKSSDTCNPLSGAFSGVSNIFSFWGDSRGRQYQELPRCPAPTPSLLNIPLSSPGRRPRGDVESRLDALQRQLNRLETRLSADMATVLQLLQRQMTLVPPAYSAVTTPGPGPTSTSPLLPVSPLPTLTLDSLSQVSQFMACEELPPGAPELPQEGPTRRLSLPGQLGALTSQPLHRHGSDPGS
protocolDescription: Inhibition of human ERG expressed in HEK293 cells at 50 uM by patch-clamp technique
Format: cell-based
testConditions: HEK293 cells that express hERG
propertyLabel: inhibition at 50 µM
Write the numeric value and follow it with the unit.

Query: API: value(readout=inhibition at 50 µM, system=hERG (KCNH2) (Homo sapiens)) for record `O=C(OCC1CCN(Cc2ccc(-c3ccccc3-c3nn[nH]n3)cc2)CC1)c1c2n(c3ccccc13)CCCO2`
Result: 35%

====

protocolDescription: Apparent permeability of the compound in human Caco2 cells at 1 uM
Type: ADME, cell-based
testConditions: Caco-2
Provide the recorded Papp at 1 µM for the entries that follow.
State the answer as a number, implicitly in ×10⁻⁶ cm/s.

Query: Please give the measured Papp at 1 µM for this compound: `CC(C)CCOC(=O)c1ccccc1-c1ccc(CN2CCC(COC(=O)c3c4n(c5ccccc35)CCCO4)CC2)cc1.CS(=O)(=O)O`
Result: 5.4

Query: Papp at 1 µM for CC(C)NCC(O)c1ccc(NS(C)(=O)=O)cc1 (centres undefined) [SOTALOL] ?
Result: 0.8

Query: Return reported Papp at 1 µM; argument: `CC(C)(C)C(=O)OCOC(=O)c1ccccc1-c1ccc(CN2CCC(COC(=O)c3c4n(c5ccccc35)CCCO4)CC2)cc1.CS(=O)(=O)O`
Result: 9

Query: Which measured Papp at 1 µM value corresponds to `CC(=O)OCOC(=O)c1ccccc1-c1ccc(CN2CCC(COC(=O)c3c4n(c5ccccc35)CCCO4)CC2)cc1.CS(=O)(=O)O` ?
Result: 1.4

====

experimentalSystem: 5-hydroxytryptamine receptor 4 (Homo sapiens, UniProt Q13639)
Sequence (Q13639 whole entry): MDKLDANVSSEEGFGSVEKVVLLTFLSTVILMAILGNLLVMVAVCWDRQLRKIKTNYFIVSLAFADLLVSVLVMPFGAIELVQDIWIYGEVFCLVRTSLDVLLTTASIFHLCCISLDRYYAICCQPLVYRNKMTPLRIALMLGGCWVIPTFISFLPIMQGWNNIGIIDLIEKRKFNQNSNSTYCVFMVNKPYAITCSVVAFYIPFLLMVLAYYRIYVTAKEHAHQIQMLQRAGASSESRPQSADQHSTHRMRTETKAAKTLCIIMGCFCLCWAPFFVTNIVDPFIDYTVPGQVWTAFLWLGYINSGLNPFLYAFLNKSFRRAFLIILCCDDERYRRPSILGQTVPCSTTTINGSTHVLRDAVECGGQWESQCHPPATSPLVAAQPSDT
protocolDescription: Displacement of [3H]GR113808 from human 5HT4B receptor expressed in HEK293 cells
Type: cell-based
Binarize Ki at 0.6 nM; below is yes (1), at or above is no (0).

Query: Take the compound `CS(=O)(=O)O.O=C(O)c1ccccc1-c1ccc(CN2CCC(COC(=O)c3c4n(c5ccccc35)CCCO4)CC2)cc1` and say whether its Ki is less than 0.6 nM.
Result: yes (1)

Query: Does this compound meet the criterion Ki < 0.6 nM? `COC(=O)c1ccccc1-c1ccc(CN2CCC(CNC(=O)c3c4n(c5ccccc35)CCCO4)CC2)cc1`
Result: yes (1)

Query: In plain terms, does `O=C(OCC1CCN(Cc2ccc(-c3ccccc3-c3nn[nH]n3)cc2)CC1)c1c2n(c3ccccc13)CCCO2` come in under 0.6 nM for Ki?
Result: no (0)

Query: Check if Ki falls below 0.6 nM for `O=C(NCC1CCN(Cc2ccc(-c3ccccc3-c3nnn[nH]3)cc2)CC1)c1c2n(c3ccccc13)CCCO2` .
Result: no (0)

Query: In plain terms, does `O=C(O)c1ccccc1-c1ccc(CN2CCC(CNC(=O)c3c4n(c5ccccc35)CCCO4)CC2)cc1` come in under 0.6 nM for Ki?
Result: no (0)

Query: Lab note: confirm whether the reported Ki for this compound is below 0.6 nM, equality not counting. compound: `COC(=O)c1ccccc1-c1ccc(CN2CCC(COC(=O)c3c4n(c5ccccc35)CCCO4)CC2)cc1.CS(=O)(=O)O`
Result: yes (1)

====

protocolDescription: Octanol-buffer partition coefficient, log D of the compound at pH 7.4
Type: physicochemical
propertyLabel: logD
Lab note: record the figure alone, no unit after it.

Query: Value lookup for logD; key = `O=C(OCC1CCN(Cc2ccc(-c3ccccc3-c3nn[nH]n3)cc2)CC1)c1c2n(c3ccccc13)CCCO2`
Result: 1.6

Query: Name the reported logD value associated with the molecule `CS(=O)(=O)O.Cc1oc(=O)oc1COC(=O)c1ccccc1-c1ccc(CN2CCC(COC(=O)c3c4n(c5ccccc35)CCCO4)CC2)cc1`
Result: 4.6

Query: Entry `COC(=O)c1ccccc1-c1ccc(CN2CCC(COC(=O)c3c4n(c5ccccc35)CCCO4)CC2)cc1.CS(=O)(=O)O` : reported logD = ?
Result: 4.5

Query: What value of logD has been recorded for this entry: `CC(C)CCOC(=O)c1ccccc1-c1ccc(CN2CCC(COC(=O)c3c4n(c5ccccc35)CCCO4)CC2)cc1.CS(=O)(=O)O`
Result: 4.9

Query: Name the reported logD value associated with the molecule `Cl.O=C(OCc1ccccc1)c1ccccc1-c1ccc(CN2CCC(COC(=O)c3c4n(c5ccccc35)CCCO4)CC2)cc1`
Result: 5.1

Query: logD; subject: `CC(=O)OCOC(=O)c1ccccc1-c1ccc(CN2CCC(COC(=O)c3c4n(c5ccccc35)CCCO4)CC2)cc1.CS(=O)(=O)O`
Result: 4.5

Query: Fill in the blank: the reported logD of `CC(C)(C)C(=O)OCn1nnc(-c2ccccc2-c2ccc(CN3CCC(COC(=O)c4c5n(c6ccccc46)CCCO5)CC3)cc2)n1.CS(=O)(=O)O` is ____.
Result: 4.3

Query: Find the recorded logD belonging to `CC(C)(C)C(=O)OCOC(=O)c1ccccc1-c1ccc(CN2CCC(COC(=O)c3c4n(c5ccccc35)CCCO4)CC2)cc1.CS(=O)(=O)O` and report it.
Result: 4.7

Query: Could you share which logD value was measured for `CS(=O)(=O)O.O=C(O)c1ccccc1-c1ccc(CN2CCC(COC(=O)c3c4n(c5ccccc35)CCCO4)CC2)cc1` ?
Result: 1.3

Query: logD; subject: `CCCCOC(=O)c1ccccc1-c1ccc(CN2CCC(COC(=O)c3c4n(c5ccccc35)CCCO4)CC2)cc1.CS(=O)(=O)O`
Result: 4.9
